Target: UniProtKB P07949
measurementType: IC50

• Cc1cc(Nc2cc(C)[nH]n2)nc(-c2ccc(C(=O)NCc3ccc(-n4ccc(C5CC5)n4)nc3)nc2)n1 = < 10 nM
• Cc1cc(Nc2cc(C)[nH]n2)nc(-c2ccc(C(=O)NCc3ccc(Cl)cc3)nc2)n1 = 10 to 100 nM
• Cc1cc(Nc2cc(C)[nH]n2)nc(-c2ccc(C(=O)NCc3cnc(-n4cc(F)cn4)cn3)nc2)n1 = < 10 nM
• Cc1cc(Nc2cc(C)[nH]n2)nc(-c2ccc(C(=O)NCc3cncs3)nc2)n1 = > 100 nM
• Cc1cc(Nc2cc(C)[nH]n2)nc(-c2ccc(C(=O)NCc3ccc(-n4cc(C(F)F)cn4)nc3)nc2)n1 = 10 to 100 nM
• Cc1cc(Nc2cc(C)[nH]n2)nc(-c2ccc(C(=O)NCc3ccc(-n4cc(C5CC5)cn4)nc3)nc2)n1 = 10 to 100 nM
• Cc1cc(Nc2cc(C)[nH]n2)nc(-c2ccc(C(=O)NCc3ccc(-n4nc(C)cc4C)nc3)nc2)n1 = < 10 nM

* * *

Target: wild type RET (Homo sapiens (Human))
Sequence (P07949 29-1114): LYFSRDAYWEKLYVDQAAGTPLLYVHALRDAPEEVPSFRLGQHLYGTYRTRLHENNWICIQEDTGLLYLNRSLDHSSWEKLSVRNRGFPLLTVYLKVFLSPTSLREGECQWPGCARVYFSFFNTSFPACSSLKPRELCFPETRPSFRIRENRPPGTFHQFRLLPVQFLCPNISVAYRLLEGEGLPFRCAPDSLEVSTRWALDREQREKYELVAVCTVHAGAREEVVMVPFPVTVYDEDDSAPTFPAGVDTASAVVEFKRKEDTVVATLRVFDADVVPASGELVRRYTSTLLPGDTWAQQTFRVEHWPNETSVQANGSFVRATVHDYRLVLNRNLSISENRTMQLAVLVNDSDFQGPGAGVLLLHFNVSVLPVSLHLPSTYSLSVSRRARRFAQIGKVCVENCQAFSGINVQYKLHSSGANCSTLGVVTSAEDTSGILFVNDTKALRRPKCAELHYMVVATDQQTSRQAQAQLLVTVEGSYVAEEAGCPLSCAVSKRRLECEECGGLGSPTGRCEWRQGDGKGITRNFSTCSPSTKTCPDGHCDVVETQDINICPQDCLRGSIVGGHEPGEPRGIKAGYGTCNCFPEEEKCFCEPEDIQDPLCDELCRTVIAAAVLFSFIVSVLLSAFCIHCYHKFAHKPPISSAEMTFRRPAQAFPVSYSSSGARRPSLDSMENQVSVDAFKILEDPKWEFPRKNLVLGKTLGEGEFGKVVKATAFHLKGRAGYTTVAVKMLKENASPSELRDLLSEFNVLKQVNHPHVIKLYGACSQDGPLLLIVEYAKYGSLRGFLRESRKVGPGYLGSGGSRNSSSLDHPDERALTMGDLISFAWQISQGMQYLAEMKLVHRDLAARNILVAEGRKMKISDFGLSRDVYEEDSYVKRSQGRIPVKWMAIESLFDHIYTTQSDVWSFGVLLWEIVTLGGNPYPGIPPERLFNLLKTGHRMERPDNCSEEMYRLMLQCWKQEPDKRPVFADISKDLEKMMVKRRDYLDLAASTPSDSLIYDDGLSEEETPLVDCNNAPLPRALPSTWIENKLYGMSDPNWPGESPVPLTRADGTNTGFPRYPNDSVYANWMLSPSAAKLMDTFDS
measurementType: IC50

- Cc1cc(Nc2cc(C)[nH]n2)nc(-c2ccc(C(=O)N[C@@H](C)c3ccc(-n4cc(F)cn4)nc3)nc2)n1: < 10 nM
- Cc1cc(Nc2cc(C)[nH]n2)nc(-c2cnc(C(=O)N[C@@H](C)c3ccc(-n4cc(F)cn4)nc3)c(C)c2)n1: < 10 nM
- Cc1cc(Nc2cc(C)[nH]n2)nc(-c2ccc(C(=O)NCc3ccc(-n4cc(C(F)F)c(C)n4)nc3)nc2)n1: 10 to 100 nM
- Cc1cc(Nc2cc(C)[nH]n2)nc(-c2ccc(C(=O)NCc3ccc(F)cc3)nc2)n1: 10 to 100 nM
- Cc1cc(Nc2cc(C)[nH]n2)nc(-c2ccc(C(=O)NCc3ccc(-n4cc(C#N)cn4)nc3)nc2)n1: 10 to 100 nM
- Cc1cc(Nc2cc(C)[nH]n2)nc(-c2ccc(C(=O)NCc3ccc(-n4cc(CCO)cn4)nc3)nc2)n1: 10 to 100 nM
- Cc1cc(Nc2cc(C)[nH]n2)nc(-c2ccc(C(=O)NCc3ccoc3)nc2)n1: 10 to 100 nM
- CC[C@@H](NC(=O)c1ccc(-c2nc(C)cc(Nc3cc(C)[nH]n3)n2)cn1)c1ccc(-n2cc(F)cn2)nc1: < 10 nM
- Cc1ccc(CNC(=O)c2ccc(-c3nc(C)cc(Nc4cc(C)[nH]n4)n3)cn2)nc1: 10 to 100 nM
- CCOc1ccc([C@@H](C)NC(=O)c2ncc(-c3nc(C)cc(Nc4cc(C)[nH]n4)n3)cc2C)cc1: > 100 nM
- Cc1cc(Nc2cc(C)[nH]n2)nc(-c2ccc(C(=O)N3Cc4ccccc4C3)nc2)n1: 10 to 100 nM
- Cc1cc(Nc2cc(C)[nH]n2)nc(-c2cnc(C(=O)NCc3ccc(-n4cccn4)nc3)c(C)c2)n1: < 10 nM

Where do these numbers come from? They come from patent US10202365B2.
